meta.source: PubChem BioAssay (NCATS)

# Tested on: PA-1
# method: Primary qHTS to identify gynecologic anti-cancer compounds using libraries of approved drugs and bioactive compounds (AID 1345084); note: % is set by controls: 0 for no effect and ±100 for the full control effect; nearly all actives have a fitted effect of over 55% in size
# setup_conditions: Gynecologic cancer cell panel viability, ATPlite luminescence, 48 h; series mostly up to 57.5 µM
Inconclusive results are not listed. Calls of active or inactive are those of the source. Calls come from the whole dose curve; as a rule, active = well fitted cell-killing curve with a large enough effect; inconclusive = small, poorly fitted or top-dose-only effect, or effect the other way; inactive = flat fitted curve, though single readings scatter.

compound	experimental_target	activity change, negative = cytotoxicity
CC1(CO)CC[C@]2(C(=O)O[C@@H]3O[C@H](CO)[C@@H](O)[C@H](O)[C@H]3O)CC[C@]3(C)C(=CCC4[C@@]5(C)CC[C@H](O[C@@H]6O[C@H](C(=O)O)[C@@H](O)[C@H](O)[C@H]6O)C(C)(C)C5CC[C@]43C)C2C1 (some centres undefined)	PA-1	28.3% [at 11.6 µM] (inactive)
CC(C)(C)NCC(O)COc1cccc2c1CCCC2=O (centres undefined)	PA-1	inactive
CCC(C)C(=O)O[C@@H]1[C@@H](O)[C@@H](O[C@H]2O[C@H](CO)[C@@H](O)[C@H](O)[C@H]2O)O[C@H](CO)[C@H]1O (some centres undefined)	PA-1	inactive
O=C(O[C@H]1[C@@H]2C=CO[C@@H](O[C@@H]3O[C@H](CO)[C@@H](O)[C@H](O)[C@H]3O)[C@@H]2[C@@]2(CO)O[C@@H]12)c1ccc(O)cc1	PA-1	inactive
